- measurement.target: T1, MUC1 on HCT116/MUC1 cells (UniProt P15941 24-1255, limits assumed)
- T1 construct: whole, on cells; also called MUC1 overexpressed cell line
- T1 sequence (P15941 24-1255 limits assumed): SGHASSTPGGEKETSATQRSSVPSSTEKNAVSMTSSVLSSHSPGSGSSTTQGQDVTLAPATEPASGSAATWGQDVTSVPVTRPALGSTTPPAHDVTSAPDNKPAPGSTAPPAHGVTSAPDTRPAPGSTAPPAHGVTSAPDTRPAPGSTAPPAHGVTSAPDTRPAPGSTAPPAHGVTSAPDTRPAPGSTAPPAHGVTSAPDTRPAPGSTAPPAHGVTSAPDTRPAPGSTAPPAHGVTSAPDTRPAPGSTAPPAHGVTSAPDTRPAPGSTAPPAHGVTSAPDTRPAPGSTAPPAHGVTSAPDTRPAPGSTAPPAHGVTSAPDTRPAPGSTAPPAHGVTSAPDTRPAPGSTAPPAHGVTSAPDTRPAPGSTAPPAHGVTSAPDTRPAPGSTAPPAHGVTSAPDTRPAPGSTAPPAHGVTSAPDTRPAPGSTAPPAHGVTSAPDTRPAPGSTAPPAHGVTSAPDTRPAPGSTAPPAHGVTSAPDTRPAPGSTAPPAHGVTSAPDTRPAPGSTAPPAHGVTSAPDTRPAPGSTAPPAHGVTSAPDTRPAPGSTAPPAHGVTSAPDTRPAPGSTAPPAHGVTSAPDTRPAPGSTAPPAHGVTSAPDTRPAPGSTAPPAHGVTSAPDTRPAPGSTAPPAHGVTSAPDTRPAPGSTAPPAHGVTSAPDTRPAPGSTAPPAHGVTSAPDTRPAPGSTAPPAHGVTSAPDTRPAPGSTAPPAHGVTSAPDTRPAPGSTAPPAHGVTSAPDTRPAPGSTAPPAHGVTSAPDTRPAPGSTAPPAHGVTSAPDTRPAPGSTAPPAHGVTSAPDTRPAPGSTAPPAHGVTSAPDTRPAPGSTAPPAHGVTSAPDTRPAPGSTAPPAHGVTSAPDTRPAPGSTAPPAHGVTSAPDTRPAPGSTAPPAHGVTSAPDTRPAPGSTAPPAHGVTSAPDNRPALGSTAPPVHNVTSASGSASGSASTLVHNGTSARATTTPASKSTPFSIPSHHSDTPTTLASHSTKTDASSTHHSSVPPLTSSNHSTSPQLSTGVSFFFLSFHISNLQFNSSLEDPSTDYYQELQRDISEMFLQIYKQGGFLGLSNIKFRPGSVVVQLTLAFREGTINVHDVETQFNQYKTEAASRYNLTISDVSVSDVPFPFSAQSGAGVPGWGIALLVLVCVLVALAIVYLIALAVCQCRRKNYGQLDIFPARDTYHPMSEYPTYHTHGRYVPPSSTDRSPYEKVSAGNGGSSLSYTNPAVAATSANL
- experimental.protocol: FACS titration, HCT116/MUC1 cells, antibody at 500 nM
geometric mean overview
Write the value as a bare number.

Below: 2 binders and their reported geometric mean.
| binder | geometric mean |
| --- | --- |
| VH1 + VL1 (antibody, V domains shown, Humanized IgG expressed in HEK293; also called humanized antibody VH1+VL1) VH: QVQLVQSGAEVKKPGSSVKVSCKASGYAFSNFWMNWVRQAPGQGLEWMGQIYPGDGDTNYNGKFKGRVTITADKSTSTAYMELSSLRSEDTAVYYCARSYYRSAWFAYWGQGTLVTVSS VL: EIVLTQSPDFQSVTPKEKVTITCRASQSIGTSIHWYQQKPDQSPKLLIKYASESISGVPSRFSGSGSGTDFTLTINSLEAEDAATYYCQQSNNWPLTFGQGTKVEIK | 351 |
| VH1 + VL4 (antibody, V domains shown, Humanized IgG expressed in HEK293; also called humanized antibody VH1+VL4) VH: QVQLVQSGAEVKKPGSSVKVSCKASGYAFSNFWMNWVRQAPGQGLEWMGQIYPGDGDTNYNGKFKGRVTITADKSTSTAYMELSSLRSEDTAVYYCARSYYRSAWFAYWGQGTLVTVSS VL: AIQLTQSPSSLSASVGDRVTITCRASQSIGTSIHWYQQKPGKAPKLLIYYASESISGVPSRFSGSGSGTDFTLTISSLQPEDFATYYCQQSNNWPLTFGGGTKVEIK | 141 |

Turning now to a further binder:
Reported geometric mean ( VH5 + VL4 (antibody, V domains shown, Humanized IgG expressed in HEK293; also called humanized antibody VH5+VL4) VH: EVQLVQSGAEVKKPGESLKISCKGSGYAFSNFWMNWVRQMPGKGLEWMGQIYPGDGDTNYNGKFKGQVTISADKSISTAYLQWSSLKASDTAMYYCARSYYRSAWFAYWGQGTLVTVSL VL: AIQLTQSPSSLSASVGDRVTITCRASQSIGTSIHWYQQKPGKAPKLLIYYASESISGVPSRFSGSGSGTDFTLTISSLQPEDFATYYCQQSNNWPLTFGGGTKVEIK ) = 199
